These entries and their values trace back to ChEMBL document CHEMBL4334467.

target_system: Polymerase acidic protein (Influenza A virus (A/Puerto Rico/8/1934(H1N1)))
assay_name: Inhibition of Influenza A virus CEN
pIC50: −log10 of the molar value.
Here the recorded pIC50 is given for each entry.
property_name: pIC50

sample_smiles: O=C(O)c1cn(CC2(n3ccc4cccnc43)CCCC2)cc(O)c1=O
target_system: Polymerase acidic protein (Influenza A virus (A/Puerto Rico/8/1934(H1N1)))
property_name: pIC50
quantitative_readout: 8.30
--
sample_smiles: O=c1oc2ccc(-c3ccc(F)cc3)cc2cc1O
target_system: Polymerase acidic protein (Influenza A virus (A/Puerto Rico/8/1934(H1N1)))
property_name: pIC50
quantitative_readout: 6.30
--
sample_smiles: O=C(NCCc1ccc(O)c(O)c1)c1cc2cc(O)c(O)cc2[nH]1
target_system: Polymerase acidic protein (Influenza A virus (A/Puerto Rico/8/1934(H1N1)))
property_name: pIC50
quantitative_readout: 6.03

---

System: Influenza A virus H3N2
Type: functional, organism-based
run_parameters: A/Hong Kong/8/68, MDCK, 72 h
pEC50: −log10 of the molar value.
Form field: pEC50 (one value per entry).

sample_smiles: CC(C)N1C[C@H](C(c2ccccc2)c2ccccc2)n2ccc(=O)c(O)c2C1=O
pEC50: 6.63
//
sample_smiles: CC(C)N1CN(C(c2ccccc2)c2ccccc2)n2ccc(=O)c(O)c2C1=O
pEC50: 6.52

---

Tested on: Influenza A virus
Type: functional, organism-based
run_parameters: A/WSN/1933(H1N1), MDCK, 72 h
Label TRUE when EC50 is strictly below 100 nM; otherwise label FALSE.

sample_smiles: CN1C[C@H](C(c2ccccc2)c2ccccc2)n2ccc(=O)c(O)c2C1=O
discrete_label: FALSE

sample_smiles: CNC(=O)c1cn2c(c(O)c1=O)C(=O)N(CCOC)C[C@@H]2C(c1ccccc1)c1ccccc1
discrete_label: FALSE

sample_smiles: COCCN1C[C@@H](Cc2ccccc2)n2cc(C(=O)O)c(=O)c(O)c2C1=O
discrete_label: FALSE

sample_smiles: CN1CN(C(c2ccccc2)c2ccccc2)n2ccc(=O)c(O)c2C1=O
discrete_label: TRUE

sample_smiles: COCCN1C[C@H](C(c2ccccc2)c2ccccc2)n2cc(C(=O)O)c(=O)c(O)c2C1=O
discrete_label: FALSE

sample_smiles: COCCN1CN(Cc2ccc(F)cc2)n2cc(C(=O)O)c(=O)c(O)c2C1=O
discrete_label: FALSE

sample_smiles: COCCN1C[C@H](C(c2ccccc2)c2ccccc2)n2cc(C)c(=O)c(O)c2C1=O
discrete_label: FALSE

sample_smiles: CC(C)N1CN(C(c2ccccc2)c2ccccc2)n2ccc(=O)c(O)c2C1=O
discrete_label: TRUE

sample_smiles: CCOC(=O)c1cn2c(c(O)c1=O)C(=O)N(CCOC)C[C@@H]2C(c1ccccc1)c1ccccc1
discrete_label: FALSE

---

Reported clearance values for the following compounds.
assay_name: In vivo total clearance in Sprague-Dawley rat at 0.5 mg/kg, iv administered as single dose after 2 to 360 mins by LC/MS/MS analysis
Type: ADME, organism-based
property_name: clearance (mL/min/kg)

sample_smiles: COCCN1C[C@H](C(c2ccccc2)c2ccccc2)n2ccc(=O)c(O)c2C1=O
quantitative_readout: 42.2
//
sample_smiles: COCCN1CN(C(c2ccccc2)c2ccccc2)n2ccc(=O)c(O)c2C1=O
quantitative_readout: 47.4
//
sample_smiles: CN1CN(C(c2ccccc2)c2ccccc2)n2ccc(=O)c(O)c2C1=O
quantitative_readout: 18.8
//
sample_smiles: CC(C)N1C[C@H](C(c2ccccc2)c2ccccc2)n2ccc(=O)c(O)c2C1=O
quantitative_readout: 25.3
//
sample_smiles: O=C1c2c(O)c(=O)ccn2N(C(c2ccccc2)c2ccccc2)CN1Cc1ccco1
quantitative_readout: 42.6
//
sample_smiles: CN1C[C@H](C(c2ccccc2)c2ccccc2)n2ccc(=O)c(O)c2C1=O
quantitative_readout: 31.6
//
sample_smiles: CC(C)N1CN(C(c2ccccc2)c2ccccc2)n2ccc(=O)c(O)c2C1=O
quantitative_readout: 10.9
